Entries and their IC50
Target Under Test: MAGL (Mus musculus)
Construct: mouse brain membrane fraction or cell lysates for mouse assays
Sequence (O35678 whole entry): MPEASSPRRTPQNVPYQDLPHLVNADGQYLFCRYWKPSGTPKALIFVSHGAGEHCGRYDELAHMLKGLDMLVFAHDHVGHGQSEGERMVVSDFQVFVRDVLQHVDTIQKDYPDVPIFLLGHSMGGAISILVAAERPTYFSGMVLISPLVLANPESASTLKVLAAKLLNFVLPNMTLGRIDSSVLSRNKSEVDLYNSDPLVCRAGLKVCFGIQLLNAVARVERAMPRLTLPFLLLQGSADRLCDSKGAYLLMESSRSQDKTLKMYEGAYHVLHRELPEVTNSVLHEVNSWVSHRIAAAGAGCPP
Measurement Notes: In vitro competitive activity-based protein profiling, mouse MAGL

| Molecule | IC50 |
| --- | --- |
| CN(Cc1ccccc1Cl)[C@@H]1C[C@@H]2CN(C(=O)n3cc(Cl)cn3)C[C@@H]2C1 [Example 58] | 0.1 to 1 µM |
| CNC(=O)c1cnn(C(=O)N2CC3CN(Cc4cc(Cl)ccc4Cl)CC3C2)c1 (stereo not shown) | 0.1 to 1 µM |
| NC(=O)c1cnn(C(=O)N2CCC3(CCN(Cc4cccc(C(F)(F)F)c4)C3)C2)c1 (stereo not shown) | 0.1 to 1 µM |
| CC(C)c1ccc(CN2CC3CN(C(=O)n4cc(Cl)cn4)CC3C2)c(N2CCOCC2)c1 (stereo not shown) | ≤ 0.1 µM |
| O=C(N1CC2CN(Cc3ccccc3N3CCOCC3)CC2C1)n1cc(C(F)(F)F)cn1 (stereo not shown) | ≤ 0.1 µM |
| O=C(N1CC2CN(Cc3ccc(N4CCOCC4)cc3Cl)CC2C1)n1cc(Cl)cn1 (stereo not shown) | ≤ 0.1 µM |
| O=C(N1CC2CN(Cc3ccc(C(F)(F)F)cc3N3CCCC3)CC2C1)n1cc(Cl)cn1 (stereo not shown) | ≤ 0.1 µM |
| O=C(N1CC2CN(Cc3ccc(Cl)cc3)CC2C1)n1cc(Cl)cn1 (stereo not shown) | 0.1 to 1 µM |
| Cc1ccc(CN2CC3CN(C(=O)n4cc(C(F)(F)F)cn4)CC3C2)cc1 (stereo not shown) | ≤ 0.1 µM |
| CC(=O)N(Cc1cccc(Cl)c1)[C@@H]1C[C@@H]2CN(C(=O)n3cc(Cl)cn3)C[C@@H]2C1 | ≤ 0.1 µM |
| CC(=O)N1CCN(c2cc(F)ccc2CN2CC3CN(C(=O)n4cc(Cl)cn4)CC3C2)CC1 (stereo not shown) | ≤ 0.1 µM |
| O=C(N1CC2CN(Cc3ccc(F)cc3N3CCOCC3)CC2C1)n1cc(Cl)cn1 (stereo not shown) | ≤ 0.1 µM |
| O=C(c1cnn(C(=O)N2CC3CN(Cc4ccccc4Cl)CC3C2)c1)N1CCCCC1 (stereo not shown) | 1 to 10 µM |
| O=C(N1C[C@H]2C[C@H](NCc3ccccc3Cl)C[C@H]2C1)n1cc(Cl)cn1 | ≤ 0.1 µM |
| NC(=O)c1cnn(C(=O)N2CC[C@]3(CCN(Cc4cc(Cl)cc(C(F)(F)F)c4)C3)C2)c1 | ≤ 0.1 µM |
| O=C(N1CCC2(CCN(Cc3ccc(Cl)c(Cl)c3)C2)C1)n1cc(Cl)cn1 (stereo not shown) [Example 127] | 0.1 to 1 µM |

====

Target Under Test: MAGL (Mus musculus)
Construct: mouse brain membrane fraction or cell lysates for mouse assays; from tissue
Measurement Notes: In vitro competitive activity-based protein profiling, mouse MAGL
Type: biochemical
Condition Context: 1 μM, read-out: MAGL % inh. 1 μM (mouse)
Procedure: In Vitro Competitive Activity-Based Protein Profiling. Proteomes (mouse brain membrane fraction or cell lysates for mouse assays; human prefrontal cortex or cell membrane fractions for human assays) (50 μL, 1.0 mg/mL total protein concentration) were preincubated with varying concentrations of inhibitors at 37° C. […] Following gel imaging, serine hydrolase activity was determined by measuring fluorescent intensity of gel bands corresponding to MAGL and FAAH using ImageJ 1.43u software.
Measured Metric: inhibition at 1 µM

| Molecule | Measured Metric | Result |
| --- | --- | --- |
| O=C(N1CC2CN(Cc3ccc(CN4CCOCC4)cc3)CC2C1)n1cc(Cl)cn1 (stereo not shown) [Example 122] | inhibition at 1 µM | ≥ 75% |
| CNC(=O)c1cnn(C(=O)N2CCC3(CCN(Cc4ccc(Cl)cc4)C3)C2)c1 (stereo not shown) [Example 38] | inhibition at 1 µM | 0 to 25% |
| O=C(N1CCC2(CCN(Cc3cccc(Cl)c3)C2)C1)n1cc(Cl)cn1 (single isomer, unassigned) [Example 132] | inhibition at 1 µM | ≥ 75% |
| NC(=O)c1cnn(C(=O)N2CC3CN(Cc4cccc(C(F)(F)F)c4)CC3C2)c1 (stereo not shown) [Example 23] | inhibition at 1 µM | ≥ 75% |
